Data provenance is patent US20200239555A1.

molecular target: T1, native human ApoC3 (human, UniProt P02656 21-99); assay: SPR, ApoC3 over captured IgG1, pH 7.4
T1 construct: also called nhuApoC3; native huApoC3
T1 sequence (P02656 21-99): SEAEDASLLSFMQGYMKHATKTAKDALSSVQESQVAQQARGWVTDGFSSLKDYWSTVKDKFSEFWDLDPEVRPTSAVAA
attribute_measured: pKd
Friendly reminder that pKd comes from taking -log10 of the concentration in mol/L.

// solved cases for pKd follow
| binder | experimental_result |
| --- | --- |
| mAb17 (antibody, IgG1, V domains shown, Produced as full length IgG1 (kappa) in ExpiCHO-S cells; also called humanized anti-ApoC3 antibody mAb17) VH: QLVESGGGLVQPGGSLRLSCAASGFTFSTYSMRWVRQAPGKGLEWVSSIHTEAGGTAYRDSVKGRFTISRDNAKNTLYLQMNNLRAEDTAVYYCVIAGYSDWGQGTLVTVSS VL: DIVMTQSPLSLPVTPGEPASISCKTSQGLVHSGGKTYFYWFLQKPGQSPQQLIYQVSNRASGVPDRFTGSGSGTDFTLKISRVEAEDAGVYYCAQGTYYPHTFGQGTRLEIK | 7.21 |
| mAb1 (antibody, IgG1, V domains shown, Produced as full length IgG1 (kappa) in ExpiCHO-S cells; also called humanized anti-ApoC3 antibody mAb1) VH: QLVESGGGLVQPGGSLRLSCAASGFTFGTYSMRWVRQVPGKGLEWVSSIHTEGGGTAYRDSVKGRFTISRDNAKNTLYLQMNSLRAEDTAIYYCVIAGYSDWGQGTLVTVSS VL: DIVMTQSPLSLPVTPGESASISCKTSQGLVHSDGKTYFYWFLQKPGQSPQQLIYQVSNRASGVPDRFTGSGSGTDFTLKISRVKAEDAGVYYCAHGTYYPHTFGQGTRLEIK | 7.13 |
| mAb15 (antibody, IgG1, V domains shown, Produced as full length IgG1 (kappa) in ExpiCHO-S cells; also called humanized anti-ApoC3 antibody mAb15) VH: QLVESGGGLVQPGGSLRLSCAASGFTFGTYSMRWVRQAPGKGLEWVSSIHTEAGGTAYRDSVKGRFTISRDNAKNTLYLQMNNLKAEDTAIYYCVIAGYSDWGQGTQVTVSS VL: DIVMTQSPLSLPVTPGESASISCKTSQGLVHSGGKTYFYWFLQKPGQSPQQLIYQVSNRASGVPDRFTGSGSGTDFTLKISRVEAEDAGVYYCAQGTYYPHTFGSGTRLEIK | 7.46 |

Fill blank: measured pKd of the binder mAb19 (antibody, IgG1, V domains shown, Produced as full length IgG1 (kappa) in ExpiCHO-S cells; also called humanized anti-ApoC3 antibody mAb19) VH: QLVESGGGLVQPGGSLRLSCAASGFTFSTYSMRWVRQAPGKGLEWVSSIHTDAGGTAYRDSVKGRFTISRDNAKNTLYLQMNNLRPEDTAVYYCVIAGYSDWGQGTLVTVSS VL: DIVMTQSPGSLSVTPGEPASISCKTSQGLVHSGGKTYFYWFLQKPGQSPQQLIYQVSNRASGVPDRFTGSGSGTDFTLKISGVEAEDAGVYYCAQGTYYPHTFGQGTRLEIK is ____.
7.44
